B1: TPR t1 (parent)
chain: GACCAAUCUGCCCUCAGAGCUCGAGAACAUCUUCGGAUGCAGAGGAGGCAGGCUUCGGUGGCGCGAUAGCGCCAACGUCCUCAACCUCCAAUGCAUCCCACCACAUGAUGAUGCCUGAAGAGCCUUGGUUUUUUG

# Variants of: B1
# assay-protocol: polymerase ribozyme fitness, log enrichment relative to wild type (log ratio); higher = more active; in vitro selection for triplet polymerase activity
metric: polymerase ribozyme fitness (log ratio)
Respond numerically, and do not add a unit to the figure.

INSERT INTO measurements (residue_change, metric, number) VALUES
  ('C12A G110C', 'polymerase ribozyme fitness (log ratio)', -3.17);

# polymerase ribozyme fitness (log ratio) of G39C A50U G61A = -1.4

# polymerase ribozyme fitness (log ratio) of U21C U96G C114U = -1.48

# polymerase ribozyme fitness (log ratio) of C3G C8G C12U C79U G110C U130A = -5.96

# polymerase ribozyme fitness (log ratio) of A84G C85U = 0.384

# polymerase ribozyme fitness (log ratio) of C12G C15U C56U G77C A83C C88A U106A U132A = -3.55

# polymerase ribozyme fitness (log ratio) of G17A C53A A90G A95U = -3.77

# polymerase ribozyme fitness (log ratio) of G17A G63U U133C = -3.8

# polymerase ribozyme fitness (log ratio) of U14G G48U = -2.8

# polymerase ribozyme fitness (log ratio) of U38A C73G C101A A119U A121U G122U = -2.99

# polymerase ribozyme fitness (log ratio) of U59C G117A = -1.62

# polymerase ribozyme fitness (log ratio) of A26G G63C = -1.65

# polymerase ribozyme fitness (log ratio) of G10U A27C U112C = -1.73

# polymerase ribozyme fitness (log ratio) of G39U C62A C86A = -5.05

# polymerase ribozyme fitness (log ratio) of A50U A74G = -1.27

# polymerase ribozyme fitness (log ratio) of C13A G48A C114U U129A = -5.75

# polymerase ribozyme fitness (log ratio) of G51U C85U = -4.37

# polymerase ribozyme fitness (log ratio) of G60C U92G = -3.59
